molecular target: heteromeric KV7.2/KV7.3 channels (KCNQ2, KCNQ3) (Homo sapiens, UniProt O43525+O43526); construct: expressed in transfected cells; host or cells: CHO-K1; test: Automated patch-clamp (Sophion Qube 384) potency assay against KV7.2/KV7.3 channels; assay type: cell-based; details: CHO-K1/Kv7.2/Kv7.3 cells; maximal shift in the Vhalf from the top of the curve
measured.attribute: Kv7.2/7.3 ΔV1/2 (mV)

// known answers, use as guide
INSERT INTO assay_data (compound, measured_attribute, endpoint_value) VALUES
  ('C[C@@H](Oc1cc(CNC(=O)N[C@@H]2CCOc3ccc(F)cc32)ncn1)C(F)(F)F', 'Kv7.2/7.3 ΔV1/2', 33.98),
  ('O=C(NCc1ccnc(OCC(F)(F)F)c1)N[C@@H]1COc2ccccc21', 'Kv7.2/7.3 ΔV1/2', 34.47),
  ('O=C(NCc1ccnc(OCC(F)(F)F)c1)NCc1ccccc1Cl', 'Kv7.2/7.3 ΔV1/2', 25.35),
  ('O=C(NCc1ccnc(OCC(F)(F)F)c1)N[C@@H]1CCc2c(Cl)cccc21 [Compound 118]', 'Kv7.2/7.3 ΔV1/2', 41.97),
  ('C[C@H](NC(=O)NCCC1(C(F)(F)F)CC1)c1ccnc(OCC(F)(F)F)c1', 'Kv7.2/7.3 ΔV1/2', 23.87);

I: O=C(NCc1ccnc(OCC(F)(F)F)c1)N[C@@H]1CCCc2c(F)cccc21
II: O=C(NCc1ccnc(OCC(F)(F)F)c1)NCC1CCCC(F)(F)C1 (centres unmarked)
Kindly identify the item with the lower Kv7.2/7.3 ΔV1/2 figure among these two: I and II Bench note: the answer is the label of the chosen record.
II

---

target: heteromeric KV7.2/KV7.3 channels (KCNQ2, KCNQ3) (Homo sapiens, UniProt O43525+O43526); construct: expressed in transfected cells; host or cells: CHO-K1; assay: Automated patch-clamp (Sophion Qube 384) potency assay against KV7.2/KV7.3 channels; format: cell-based; conditions: CHO-K1/Kv7.2/Kv7.3 cells; maximal shift in the Vhalf from the top of the curve
measured.attribute: Kv7.2/7.3 ΔV1/2 (mV)

Below are worked cases with known answers.
INSERT INTO results (compound, measured_attribute, endpoint_value) VALUES
  ('O=C(NCc1ccnc(OCC(F)(F)F)c1)N[C@@H]1CCO[C@H](c2ccc(F)cc2)C1 [Compound 245]', 'Kv7.2/7.3 ΔV1/2', 46.39),
  ('O=C(NCc1ccnc(OCC(F)(F)F)c1)NC1(CO)Cc2ccccc2C1 [Compound 146]', 'Kv7.2/7.3 ΔV1/2', 30.86),
  ('O=C(NCc1ccnc(OCC(F)(F)F)c1)N[C@H]1CCOc2ccccc21 [Compound 132]', 'Kv7.2/7.3 ΔV1/2', 19.47),
  ('O=C(NCCC1(C(F)(F)F)CC1)NCc1ccnc(OCC(F)F)c1 [Compound 18]', 'Kv7.2/7.3 ΔV1/2', 24.69),
  ('O=C(NCc1ccnc(OCC(F)(F)F)c1)N[C@H]1CCc2ccc(C(F)(F)F)cc21 [Compound 163]', 'Kv7.2/7.3 ΔV1/2', 27.41);

1: C[C@@H](Oc1cc(CNC(=O)N[C@@H]2CCOc3ccccc32)ncn1)C(F)(F)F [Compound 205]
2: O=C(NCCC1(C(F)(F)F)CC1)NCc1ccnc(OCC(F)(F)F)n1 [Compound 49]
Thinking about recorded Kv7.2/7.3 ΔV1/2 values, which is higher, 1 or 2 ? Record your answer as the label of the chosen record.
1
